tested on: OVCAR-3; experiment: NCI tumour cell line growth inhibition, 48 h
The source made the active and inactive calls. Cut-off read from the data, not from the text of the source: active = GI50 up to about 1.1 µM and inactive = higher.
Recorded Metric: GI50

molecule="[O-][S+](Nc1ccccc1)c1ccccc1Oc1ccccc1 (stereo unspecified)" recorded_metric=GI50 obs_value="92.9 µM (inactive)"
molecule=Cc1n[nH]c(=O)n1/N=C/c1ccc([N+](=O)[O-])cc1 recorded_metric=GI50 obs_value="> 100 µM (inactive)"
molecule=C/N=C(\N)N/N=C(\C)c1ccc2oc3ccc(/C(C)=N/N/C(N)=N/C)cc3c2c1 recorded_metric=GI50 obs_value="2.64 µM (inactive)"
molecule=O=C1/C(=C/c2ccccc2[N+](=O)[O-])N=C(c2ccccc2)N1c1nc2ccccc2s1 recorded_metric=GI50 obs_value="21.1 µM (inactive)"
molecule=Oc1ccc(-c2c3ccccc3c(-c3ccc(O)cc3)c3ccccc23)cc1 recorded_metric=GI50 obs_value="> 100 µM (inactive)"
molecule=CCCCCCCCCCCCCS(=O)(=O)O recorded_metric=GI50 obs_value="> 100 µM (inactive)"
molecule=NC(=O)N/N=C1/CCCC/C1=C\c1ccccc1 recorded_metric=GI50 obs_value="> 100 µM (inactive)"
molecule=COc1cc(/C=C2\N=C(c3ccccc3)N(c3nc4cc(C)c(C)cc4s3)C2=O)cc(OC)c1OC recorded_metric=GI50 obs_value="20 µM (inactive)"
molecule=COc1cc(C(SCc2ccccc2)SCc2ccccc2)ccc1O recorded_metric=GI50 obs_value="> 10 µM (inactive)"
molecule=COC(=O)[C@@H]1[C@H]2CC[C@]3(C)[C@@H](OC(C)=O)CC[C@H]3[C@@H]2CC[C@H]1C(C)=O recorded_metric=GI50 obs_value="> 100 µM (inactive)"
molecule=O=S(=O)(N/C(=N\O)Nc1ccc(Cl)cc1)c1ccc(S(=O)(=O)c2ccccc2)s1 recorded_metric=GI50 obs_value="18.4 µM (inactive)"
molecule="O=C1[C@H](c2ccccc2)C2c3ccccc3CCN12 (stereo partly specified)" recorded_metric=GI50 obs_value="> 10 µM (inactive)"
molecule=COC(=O)Cc1ccc2c(cnn2-c2ccccc2)c1OC recorded_metric=GI50 obs_value="> 10 µM (inactive)"
molecule="CC1CCC2CC(=O)OC([C@@H]3C(=O)O[C@@H](C4=CCCC4)C4C(C)CCC43)C12 (stereo partly specified)" recorded_metric=GI50 obs_value="73.1 µM (inactive)"
molecule=Fc1ccc(/N=C/C=C/Nc2ccc(F)cc2)cc1 recorded_metric=GI50 obs_value="16 µM (inactive)"
molecule=CC(C)(C)c1ccc2c(c1)C#Cc1cc(C(C)(C)C)ccc1OCCCO2 recorded_metric=GI50 obs_value="> 100 µM (inactive)"
molecule=CC(C)OC(=O)C1=C2c3ncccc3C(=O)N2[C@@H](Cl)[C@H](Cl)[C@H]1Cl recorded_metric=GI50 obs_value="> 100 µM (inactive)"
molecule=Brc1c(C#CCC(c2ccccc2)(c2ccccc2)c2ccccc2)ccc(C#CCC(c2ccccc2)(c2ccccc2)c2ccccc2)c1Br recorded_metric=GI50 obs_value="> 100 µM (inactive)"
molecule=C/C(=N\NC(N)=S)c1ccc2c(c1)OCO2 recorded_metric=GI50 obs_value="> 100 µM (inactive)"
molecule=COc1c2c(c3c(c1CCC(=O)O)OC(C)(C)C=C3)OC(C)(C)C=C2 recorded_metric=GI50 obs_value="58.7 µM (inactive)"
molecule=O=[N+]([O-])/C(Cl)=C(/C(Cl)=C(Cl)Cl)N1CCOCC1 recorded_metric=GI50 obs_value="2.13 µM (inactive)"

====

test system: OVCAR-4; test: NCI tumour cell line growth inhibition, 48 h
Active and inactive are the calls of the source. Cut-off read from the data, not from the text of the source: active = GI50 up to about 1.1 µM and inactive = higher.
Recorded Metric: GI50

compound=COC(=O)CC[C@@H](C)[C@H]1CC[C@H]2[C@@H]3CC[C@@H]4C[C@H](O)CC[C@]4(C)[C@H]3CC[C@]12C experimental_system=OVCAR-4 recorded_metric=GI50 obs_value="19 µM (inactive)"
compound=CCOC(=O)NC(=O)c1cn(-c2ccc(CCOC(=O)CCCCCCCCC(=O)OCCc3ccc(-n4cc(C(=O)NC(=O)OCC)c(=O)[nH]c4=O)cc3)cc2)c(=O)[nH]c1=O experimental_system=OVCAR-4 recorded_metric=GI50 obs_value="> 100 µM (inactive)"
compound=CCCCCC(=O)n1[nH]c(=O)n(-c2ccc(OC)cc2)c1=O experimental_system=OVCAR-4 recorded_metric=GI50 obs_value="> 100 µM (inactive)"
compound=Cc1csc2nc(-c3ccc(Cl)c([N+](=O)[O-])c3)c(/C=N/NC(=N)N)n12 experimental_system=OVCAR-4 recorded_metric=GI50 obs_value="1.64 µM (inactive)"
compound=O=C(CSc1nnc(Cc2ccccc2)o1)Nc1ccccc1 experimental_system=OVCAR-4 recorded_metric=GI50 obs_value="> 100 µM (inactive)"
compound=C(=N\Cc1ccccc1)/c1ccccc1-c1ccccc1/C=N/Cc1ccccc1 experimental_system=OVCAR-4 recorded_metric=GI50 obs_value="> 7.96 µM (inactive)"
compound=C[C@@H]1C[C@@H](O)[C@]2(O)O[C@@H]3C[C@@]4(C=O)[C@@H](CC[C@@H]5[C@@H]4CC[C@]4(C)[C@@H](C6=CC(=O)OC6)CC[C@]54O)C[C@H]3O[C@@H]2O1 experimental_system=OVCAR-4 recorded_metric=GI50 obs_value="0.0222 µM (active)"
compound="CCOP12(OCC)NC(=O)OC1(C(F)(F)F)c1ccccc1O2 (centres undefined)" experimental_system=OVCAR-4 recorded_metric=GI50 obs_value="> 100 µM (inactive)"
compound="CC(SC(=O)Nc1ccc(/N=N/c2ccccc2)cc1)C(=O)O (centres undefined)" experimental_system=OVCAR-4 recorded_metric=GI50 obs_value="> 100 µM (inactive)"
compound=CSc1c(C(=O)Nc2ccccc2)c(N)n(N)c(=O)c1C#N experimental_system=OVCAR-4 recorded_metric=GI50 obs_value="> 100 µM (inactive)"
compound="O=C1[C@H](c2ccccc2)C2c3ccccc3CCN12 (some centres undefined)" experimental_system=OVCAR-4 recorded_metric=GI50 obs_value="> 10 µM (inactive)"
compound=Nc1ncnc2sc(Nc3ccccc3)nc12 experimental_system=OVCAR-4 recorded_metric=GI50 obs_value="93.3 µM (inactive)"
compound="Cc1ccc(NC(=O)CC2C(=O)Nc3ccccc3S2(=O)=O)c(C)c1 (centres undefined)" experimental_system=OVCAR-4 recorded_metric=GI50 obs_value="18.7 µM (inactive)"
compound="N#C/C(=C\\c1ccccc1)C(NO)Nc1ccccc1 (centres undefined)" experimental_system=OVCAR-4 recorded_metric=GI50 obs_value="84.3 µM (inactive)"
compound="CC1C[C@H](OC(N)=O)C(C)CC1=O (some centres undefined)" experimental_system=OVCAR-4 recorded_metric=GI50 obs_value="> 100 µM (inactive)"
compound=COc1ccc(SCc2cc(OC)ccc2OC)cc1 experimental_system=OVCAR-4 recorded_metric=GI50 obs_value="20.8 µM (inactive)"
compound="NCC(O)CNCC/C=C\\C/C=C\\C/C=C\\C/C=C\\C/C=C\\C/C=C\\CCCCC/C=C\\CCNCC(O)CN (centres undefined)" experimental_system=OVCAR-4 recorded_metric=GI50 obs_value="1.93 µM (inactive)"
compound=Cc1cc(NS(=O)(=O)c2ccc(NC(=O)c3cccc4c(Nc5ccc(S(=O)(=O)Nc6cc(C)on6)cc5)c5ccccc5nc34)cc2)no1 experimental_system=OVCAR-4 recorded_metric=GI50 obs_value="17.2 µM (inactive)"
compound=Cn1cc(NC(=O)c2cc(NC(=O)CCCCCCCCCC(=O)Nc3cc(C(=O)Nc4cc(C(=O)NCCC(=N)N)n(C)c4)n(C)c3)cn2C)cc1C(=O)NCCC(=N)N experimental_system=OVCAR-4 recorded_metric=GI50 obs_value="34.8 µM (inactive)"

====

system: LXFL 529; test: NCI tumour cell line growth inhibition, 48 h
The source made the active and inactive calls. No stated cut-off is given here; in the data, active = GI50 up to about 1.1 µM and inactive = higher.
Recorded Metric: GI50

molecule=O=C1C(c2ccc(Cl)cc2)=[N+]([O-])c2ccccc21 experimental_system="LXFL 529" obs_value="5.36 µM (inactive)"
molecule="CC1CCC2CC(=O)OC([C@@H]3C(=O)O[C@@H](C4=CCCC4)C4C(C)CCC43)C12 (stereo partly specified)" experimental_system="LXFL 529" obs_value="47.4 µM (inactive)"
molecule="CC(C)(C)OC1=C(OC(C)(C)C)C(O)(c2ccccc2)C1=O (stereo unspecified)" experimental_system="LXFL 529" obs_value="> 100 µM (inactive)"
molecule="O=c1[nH]c(=O)n(C2CC(O)C(CO)O2)cc1/C=C/Br (stereo unspecified)" experimental_system="LXFL 529" obs_value="> 100 µM (inactive)"
molecule="O=C(Nc1nccs1)c1cc(C2=CC=CC([N+](=O)[O-])C=C2)nc(S)n1 (stereo unspecified)" experimental_system="LXFL 529" obs_value="> 100 µM (inactive)"
molecule="O=C(NN1C(=O)CS(=O)(=O)C1c1ccc(C(F)(F)F)cc1)c1ccncc1 (stereo unspecified)" experimental_system="LXFL 529" obs_value="> 100 µM (inactive)"
